- Tested on: Brain
- measurementDescription: Drug uptake in overnight fasted Sprague-Dawley rat brain at 0.7 to 1.4 MBq, iv preincubated with POCA for 2 hrs before compound administration measured at 120 mins post treatment
- Type: ADME, organism-based
- runConditions: in vivo
propertyLabel: Drug uptake (%IDKg/g)

{"columns": ["smilesInput", "targetDesc", "propertyLabel", "readoutNumber"],
 "data": [
  ["O=C(O)CCSCCCCCCCCCCCC[18F]", "Brain", "Drug uptake", 0.0578]
]}

(I) O=C(O)CCSCCCC/C=C\CCCCCCCC[18F]
(II) O=C(O)CCSCCCCCCCCCCCCCC[18F]
(III) O=C(O)CCCCSCCCCCCCCCCCC[18F]
*Q* Order the records so the highest Drug uptake appears first and the lowest last. // format: requested-order list of labels
*A* III, II, I
